Target: F protein of hRSV strain B-1 (hRSV strain B-1)
Test: cell-based or functional assay
value type: RSV neutralization IC50 (nM)
Answers are plain numbers, in nM.

- binder: "Nanobody 15B3 (VHH) VHH: EVQLVESGGGLVQPGGSLRLSCAASGLTLDYYALGWFRQAPGKEREGVSCISSSDHSTTYTDSVKGRFTISWDNAKNTLYLQMNSLKPGDTAVYYCAADPALGCYSGSYYPRYDYWGQGTQVTVSS"
  endpoint value: 1270
- binder: "Nanobody 7B2 (VHH) VHH: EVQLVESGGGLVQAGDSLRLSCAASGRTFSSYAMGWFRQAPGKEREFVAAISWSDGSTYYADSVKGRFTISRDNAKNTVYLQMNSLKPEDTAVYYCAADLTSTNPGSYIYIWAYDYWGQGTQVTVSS"
  endpoint value: 2690
- binder: "Nanobody 191E4 (VHH) VHH: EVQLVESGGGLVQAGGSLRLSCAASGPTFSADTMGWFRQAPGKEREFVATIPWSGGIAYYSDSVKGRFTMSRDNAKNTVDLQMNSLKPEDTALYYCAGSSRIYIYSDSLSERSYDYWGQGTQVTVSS"
  endpoint value: 4330
- binder: "Nanobody 15H8 (VHH) VHH: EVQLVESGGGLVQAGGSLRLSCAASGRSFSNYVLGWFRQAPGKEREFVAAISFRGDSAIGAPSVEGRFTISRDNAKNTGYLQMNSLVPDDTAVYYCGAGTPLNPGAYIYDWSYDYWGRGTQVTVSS"
  endpoint value: 2340

QUERY: // lookup RSV neutralization IC50 for Nanobody NC41 (VHH) VHH: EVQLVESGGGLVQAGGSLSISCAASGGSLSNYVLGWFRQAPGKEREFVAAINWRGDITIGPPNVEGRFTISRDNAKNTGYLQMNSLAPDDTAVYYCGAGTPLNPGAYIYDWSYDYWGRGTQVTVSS
RESULT: 4000
